Molecular target: T1, chimeric C10orf54: human IgV with mouse STALK (construct CC5) (human/mouse chimera)
T1 construct: also called C10orf54 Construct 5; hsIGVmmSTALK
T1 chain: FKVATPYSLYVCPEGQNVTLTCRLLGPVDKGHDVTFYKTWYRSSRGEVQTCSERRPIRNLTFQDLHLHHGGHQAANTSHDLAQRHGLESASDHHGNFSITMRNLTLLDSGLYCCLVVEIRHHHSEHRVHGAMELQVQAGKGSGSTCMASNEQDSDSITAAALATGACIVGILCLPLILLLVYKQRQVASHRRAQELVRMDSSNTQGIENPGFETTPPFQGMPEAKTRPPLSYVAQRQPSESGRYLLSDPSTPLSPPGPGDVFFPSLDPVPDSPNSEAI
Experiment: flow cytometry, transfected 293t cells, 2 ug/ml; stain = MFI >=20-fold over isotype control

[
  {
    "BINDER": "murine monoclonal antibody 128A (antibody, V domains shown, Mouse hybridoma antibody) VH: QVQLQQSGAELVRPGVSVKISCKGSGYTFTDYGMHWVKQSHAKSLEWIGLIDTYYGDATYNHKFKGKATMTVDKSSRTAYMELARLTSEDSAIYYCARRAGNAMDYWGQGTSVTASS VL: NIAMTQTPKFLLVSAGDRVTITCKASQSVSNDIAWYQQKPGQSPRLLIYYASNRYTGVPDRFTGSGYGTDFTFTISTVQAEDLAVYFCQQDYSSPRTFGGGTKLEIK",
    "binding result": "binds"
  },
  {
    "BINDER": "murine monoclonal antibody 175A (antibody, V domains shown, Mouse hybridoma antibody) VH: QVQLQQSGAELMKPGASVKISCKATGYTFSTHWIEWVKQRPGHGLEWIGEILPGSGSTSYNEKFKGKATFTADTSSNTAYMQLSSLTSEDSAVYYCARWLLYYYAMDYWGQGTSVTVSS VL: DVLMTQTPLSLPVSLGDQASISCRSSQSIVHSNGNTYLEWYLQKPGQSPKLLIYKLSNRFSGVPDRFSGSGSGTDFTLKISRVEAEDLGVYYCFQGSHFPYTFGGGTKLEIK",
    "binding result": "binds"
  }
]
